Taken from patent US9505781B2.

target: menin-MLL interaction (Homo sapiens); assay: biochemical
Sequence (O00255 whole entry): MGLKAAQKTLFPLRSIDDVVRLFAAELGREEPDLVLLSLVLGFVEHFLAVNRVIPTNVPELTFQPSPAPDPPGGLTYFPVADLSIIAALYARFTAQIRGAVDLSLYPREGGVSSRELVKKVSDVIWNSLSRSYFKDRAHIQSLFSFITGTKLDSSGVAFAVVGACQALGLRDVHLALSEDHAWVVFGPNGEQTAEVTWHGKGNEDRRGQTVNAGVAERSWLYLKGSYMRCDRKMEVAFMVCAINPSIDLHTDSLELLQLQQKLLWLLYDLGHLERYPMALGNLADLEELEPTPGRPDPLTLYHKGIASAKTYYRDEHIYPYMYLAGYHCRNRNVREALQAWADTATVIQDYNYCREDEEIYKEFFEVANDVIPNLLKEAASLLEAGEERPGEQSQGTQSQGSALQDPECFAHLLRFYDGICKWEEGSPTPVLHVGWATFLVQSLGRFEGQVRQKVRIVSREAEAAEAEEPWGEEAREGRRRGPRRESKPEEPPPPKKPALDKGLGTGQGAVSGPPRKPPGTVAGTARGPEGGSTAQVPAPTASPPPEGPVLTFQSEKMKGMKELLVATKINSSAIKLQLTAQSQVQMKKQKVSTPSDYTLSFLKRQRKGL
Property Label: IC50

Compound	Experimental Result
O=C1CCC(c2ccc(CC(=O)N3CCN(c4ncnc5sc(CC(F)(F)F)cc45)CC3)cc2)N1 (stereo not shown)	100 to 500 nM
N#Cc1cc2cc(CN3CC[C@H](Nc4ncnc5sc(CC(F)(F)F)cc45)[C@H](CO)C3)ccc2[nH]1	< 100 nM
FC(F)(F)Cc1cc2c(N3CCN(C4CCCCC4)CC3)ncnc2s1	100 to 500 nM
N#Cc1cc2cc(CN3CCC(Nc4ncnc5sc(CC(F)(F)F)cc45)CC3)cc(F)c2n1CC(N)=O	100 to 500 nM
O=C(CC1CCCCC1)N1CCN(c2ncnc3sc(CC(F)(F)F)cc23)CC1	500 to 2000 nM
N#Cc1ccc(CN2CCC(CNc3ncnc4sc(CC(F)(F)F)cc34)CC2)cc1	100 to 500 nM
N#Cc1cc2c(F)c(CN3CCC(Nc4ncnc5sc(CC(F)(F)F)cc45)CC3)ccc2[nH]1	< 100 nM
CCS(=O)(=O)Nc1ccc(CC(=O)N2CCN(c3ncnc4sc(CC(F)(F)F)cc34)CC2)cc1	< 100 nM
N#Cc1cc2cc(CN3CCC(Nc4c(CO)cnc5sc(CC(F)(F)F)cc45)CC3)ccc2[nH]1	< 100 nM
N#CCc1ccc(CC(=O)N2CCN(c3ncnc4sc(CC(F)(F)F)cc34)CC2)cc1	100 to 500 nM
Cc1c(CN2CCC(Nc3ncnc4sc(CC(F)(F)F)cc34)CC2)ccc2c1cc(C#N)n2Cc1cc(Cc2ccc(=O)[nH]c2)[nH]n1	< 100 nM
CCCCS(=O)(=O)Nc1ccc(CC(=O)N2CCN(c3ncnc4sc(CC(F)(F)F)cc34)CC2)cc1	< 100 nM
Cc1c(CN2CCC(Nc3ncnc4sc(CC(F)(F)F)cc34)CC2)c(O)cc2c1cc(C#N)n2Cc1cn[nH]c1	< 100 nM
N#Cc1cc2cc(CN3CCC(N(CCN4CCOCC4)c4ncnc5sc(CC(F)(F)F)cc45)CC3)ccc2[nH]1	100 to 500 nM
OCc1cc(O)ccc1CN1CCC(Nc2ncnc3sc(CC(F)(F)F)cc23)CC1	100 to 500 nM
Cc1ccc(CN2CCC(Nc3ncnc4sc(CC(F)(F)F)cc34)CC2)cc1	500 to 2000 nM
N#Cc1cc2nc(CN3CCC(Nc4ncnc5sc(CC(F)(F)F)cc45)CC3)ccc2[nH]1	< 100 nM
CC(C)N(c1ccc(CC(=O)N2CCN(c3ncnc4sc(CC(F)(F)F)cc34)CC2)cc1)S(C)(=O)=O	500 to 2000 nM
N#Cc1cc2c(Br)c(CN3CCC(Nc4ncnc5sc(CC(F)(F)F)cc45)CC3)ccc2[nH]1	< 100 nM
CCc1c(CN2CCC(Nc3ncnc4sc(CC(F)(F)F)cc34)CC2)ccc2[nH]c(C#N)cc12	< 100 nM
CNC(=O)CCn1c(C#N)cc2cc(CN3CCC(Nc4ncnc5sc(CC(F)(F)F)cc45)CC3)ccc21	100 to 500 nM
N#Cc1cc2c(O)c(CN3CCC(Nc4ncnc5sc(CC(F)(F)F)cc45)CC3)ccc2[nH]1	100 to 500 nM
N#Cc1cc2cc(CN3CCC(Nc4ncnc5sc(CC(F)(F)F)cc45)CC3)ccc2n1C(F)C(N)=O (stereo not shown)	< 100 nM
N#Cc1cc2cc(CN3CCC(Nc4ncnc5sc(CC(F)(F)F)cc45)CC3)ccc2n1CCn1cccn1	< 100 nM
O=C(N1CCCC1)N1CCN(c2ncnc3sc(CC(F)(F)F)cc23)CC1	500 to 2000 nM
O=C(Cc1ccc(F)cc1)N1CCN(c2ncnc3sc(CC(F)(F)F)cc23)CC1	100 to 500 nM
FC(F)(F)Cc1cc2c(NC3CCN(Cc4ccc5cc[nH]c5c4)CC3)ncnc2s1	100 to 500 nM
Cc1ccccc1CN1CCC(CNc2ncnc3sc(CC(F)(F)F)cc23)CC1	100 to 500 nM
COc1cc2[nH]c(C#N)cc2cc1CN1CCC(Nc2ncnc3sc(CC(F)(F)F)cc23)CC1	< 100 nM
CC1(C)CN=C(C2C[C@@H]3C[C@H]2CN3c2ncnc3sc(CC(F)(F)F)cc23)S1 (mixture of isomers)	100 to 500 nM
CCN(c1ccc(CC(=O)N2CCN(C3=NC=NC4SC(CC(F)(F)F)=CC34)CC2)c(Cl)c1)S(C)(=O)=O (stereo not shown)	< 100 nM
